# test-system: NRAS Q61R binding to BRAF RBD (Homo sapiens (Human), UniProt P01111+P62937, Q61R)
# Sequence (P01111 whole entry Q61R): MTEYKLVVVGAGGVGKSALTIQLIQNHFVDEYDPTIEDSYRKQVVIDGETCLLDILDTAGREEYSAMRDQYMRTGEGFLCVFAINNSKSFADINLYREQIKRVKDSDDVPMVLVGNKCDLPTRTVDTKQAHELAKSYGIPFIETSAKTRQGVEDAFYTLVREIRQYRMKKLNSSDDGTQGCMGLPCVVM
# Sequence (P62937 whole entry): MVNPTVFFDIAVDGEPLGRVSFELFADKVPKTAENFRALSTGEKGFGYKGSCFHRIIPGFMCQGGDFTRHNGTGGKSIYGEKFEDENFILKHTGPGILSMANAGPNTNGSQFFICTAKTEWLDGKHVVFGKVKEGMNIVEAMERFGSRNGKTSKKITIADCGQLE
# measurement-description: Ras-Raf disruption/FRET/MOA assay, NRAS Q61R
# Type: biochemical

record-smiles	IC50
CCn1c(-c2cncnc2)c2c3cc(ccc31)-c1csc(n1)C[C@H](NC(=O)[C@H](C(C)C)N(C)C(=O)[C@H]1CCN(S(=O)(=O)CC)C1)C(=O)N1CCC[C@H](N1)C(=O)OCC(C)(C)C2	> 10 µM
CCn1c(-c2cccnc2[C@H](C)OC)c2c3cc(ccc31)-c1csc(n1)C[C@H](NC(=O)C1(COC3CN(C(=O)C#CC(C)(C)N4CCC4)C3)CC1)C(=O)N1CCC[C@H](N1)C(=O)OCC(C)(C)C2	> 10 µM

###

The molecules listed here are annotated with their IC50.
# test-system: KRAS G12S (Homo sapiens (Human), UniProt P01116+P62937, G12S)
# Sequence (P01116 other isoform, or with tags, fused parts or gaps G12S): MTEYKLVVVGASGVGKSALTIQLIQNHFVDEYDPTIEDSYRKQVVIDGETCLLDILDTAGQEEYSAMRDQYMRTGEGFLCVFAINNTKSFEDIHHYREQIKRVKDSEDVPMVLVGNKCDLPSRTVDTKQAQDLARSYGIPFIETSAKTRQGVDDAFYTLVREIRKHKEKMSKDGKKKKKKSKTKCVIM
# Sequence (P62937 whole entry): as the sequence (P62937 whole entry) above
# measurement-description: Ras-Raf disruption/FRET/MOA assay, KRAS G12S
# Assay type: biochemical
# Description: Disruption of B-Raf Ras-Binding Domain (BRAF^RBD) Interaction with K-Ras by Compounds of the Invention (Also Called a FRET Assay or an MOA Assay) Note—The following protocol describes a procedure for monitoring disruption of K-Ras G12C (GMP-PNP) binding to BRAF^RBD by a compound of the invention. This protocol may also be executed substituting other Ras proteins or nucleotides, such as K-Ras G12D and K-Ras G13D. […]
endpoint: IC50

record-smiles	reported-measurement
CCn1c(-c2cnccc2COC)c2c3cc(ccc31)-c1cc(O)cc(c1)C[C@H](NC(=O)[C@H](C(C)C)N(C)C(=O)CN(C)C(=O)[C@@H]1N[C@@H]1C)C(=O)N1CCC[C@H](N1)C(=O)OCC(C)(C)C2	10 to 100 nM
CCn1c(-c2cccnc2[C@H](C)OC)c2c3cc(ccc31)-c1cc(O)cc(c1)C[C@H](NC(=O)[C@H](C(C)C)N(C)C(=O)[C@]13C[C@H]1CCN3C(=O)[C@H]1CN1)C(=O)N1CCC[C@H](N1)C(=O)OCC(C)(C)C2	100 to 1000 nM
CCn1c(-c2cnccc2COC)c2c3cc(ccc31)-c1cc(O)cc(c1)C[C@H](NC(=O)[C@H](C(C)C)N(C)C(=O)CN(C)C(=O)[C@H]1N[C@H]1C1CC1)C(=O)N1CCC[C@H](N1)C(=O)OCC(C)(C)C2	10 to 100 nM
CCn1c(-c2cccnc2[C@H](C)OC)c2c3cc(ccc31)-c1cc(O)cc(c1)C[C@H](NC(=O)[C@H](C(C)C)N(C)C(=O)[C@]1(C)CCCN1C(=O)[C@H]1CN1)C(=O)N1CCC[C@H](N1)C(=O)OCC(C)(C)C2	100 to 1000 nM

###

# test-system: NRAS G12C binding to BRAF RBD (Homo sapiens (Human), UniProt P01111+P62937, G12C)
# Sequence (P01111 whole entry G12C, one chain of several): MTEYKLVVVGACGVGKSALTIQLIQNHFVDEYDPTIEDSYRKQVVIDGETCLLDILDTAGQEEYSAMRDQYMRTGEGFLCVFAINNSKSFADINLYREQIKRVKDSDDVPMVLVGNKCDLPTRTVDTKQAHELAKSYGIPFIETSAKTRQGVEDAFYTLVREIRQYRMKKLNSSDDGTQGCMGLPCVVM
# measurement-description: Ras-Raf disruption/FRET/MOA assay, NRAS G12C
pIC50: −log10 of the molar value.

compound	pIC50
CCn1c(-c2cccnc2[C@H](C)OC)c2c3cc(ccc31)-c1csc(n1)C[C@H](NC(=O)C1(COC3CN(C(=O)C#CC(C)(C)N4CCC4)C3)CC1)C(=O)N1CCC[C@H](N1)C(=O)OCC(C)(C)C2	7.00 to 8.00
C=CC(=O)N1CC[C@H](C(=O)N(C)[C@H](C(=O)N[C@H]2Cc3cccc(c3)-c3ccc4c(c3)c(c(-c3cccnc3[C@H](C)OC)n4CC)CC(C)(C)COC(=O)[C@@H]3CCCN(N3)C2=O)[C@H](C)C(F)(F)F)C1 (atropisomer, axis not shown)	6.00 to 7.00
CC#CC(=O)N1CC[C@H](C(=O)N(C)[C@H](C(=O)N[C@H]2Cc3cc(O)cc(c3)-c3ccc4c(c3)c(c(-c3cncnc3)n4CC)CC(C)(C)COC(=O)[C@@H]3CCCN(N3)C2=O)C(C)C)C1	6.00 to 7.00
CCn1c(-c2cccnc2[C@H](C)OC)c2c3cc(ccc31)-c1cccc(c1)C[C@H](NC(=O)[C@H](C(C)C)N(C)C(=O)[C@H]1CCN(C(=O)C#CC3CCO3)C1)C(=O)N1CC(Br)C[C@H](N1)C(=O)OCC(C)(C)C2 (stereo partly shown)	6.00 to 7.00
